Origin of values: ChEMBL document CHEMBL3108759

molecular target: Neuronal acetylcholine receptor; alpha4/beta2 (Rattus norvegicus, UniProt P09483+P12390); assay: Displacement of [3H]epibatidine from rat alpha4beta2 nAChR transfected in HEK293 cells after 2 hrs by beta-plate counting analysis
Sequence (P09483 whole entry): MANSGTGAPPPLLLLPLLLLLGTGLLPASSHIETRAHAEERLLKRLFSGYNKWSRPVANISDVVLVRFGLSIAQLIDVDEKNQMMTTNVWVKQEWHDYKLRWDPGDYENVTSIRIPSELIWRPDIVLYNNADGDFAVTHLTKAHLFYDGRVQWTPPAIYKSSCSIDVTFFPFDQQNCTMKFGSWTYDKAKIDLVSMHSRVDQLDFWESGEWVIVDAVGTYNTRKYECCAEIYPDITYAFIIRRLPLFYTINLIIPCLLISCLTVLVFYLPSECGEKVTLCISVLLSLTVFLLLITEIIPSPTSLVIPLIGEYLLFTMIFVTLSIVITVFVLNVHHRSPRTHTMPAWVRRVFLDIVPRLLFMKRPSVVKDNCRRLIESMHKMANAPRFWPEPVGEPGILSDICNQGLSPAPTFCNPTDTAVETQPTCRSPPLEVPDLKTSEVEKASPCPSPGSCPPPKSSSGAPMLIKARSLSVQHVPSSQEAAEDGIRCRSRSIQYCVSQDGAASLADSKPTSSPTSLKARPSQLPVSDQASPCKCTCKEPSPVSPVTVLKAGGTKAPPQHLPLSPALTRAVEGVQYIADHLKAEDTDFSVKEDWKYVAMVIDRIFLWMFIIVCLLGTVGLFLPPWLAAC
Sequence (P12390 whole entry): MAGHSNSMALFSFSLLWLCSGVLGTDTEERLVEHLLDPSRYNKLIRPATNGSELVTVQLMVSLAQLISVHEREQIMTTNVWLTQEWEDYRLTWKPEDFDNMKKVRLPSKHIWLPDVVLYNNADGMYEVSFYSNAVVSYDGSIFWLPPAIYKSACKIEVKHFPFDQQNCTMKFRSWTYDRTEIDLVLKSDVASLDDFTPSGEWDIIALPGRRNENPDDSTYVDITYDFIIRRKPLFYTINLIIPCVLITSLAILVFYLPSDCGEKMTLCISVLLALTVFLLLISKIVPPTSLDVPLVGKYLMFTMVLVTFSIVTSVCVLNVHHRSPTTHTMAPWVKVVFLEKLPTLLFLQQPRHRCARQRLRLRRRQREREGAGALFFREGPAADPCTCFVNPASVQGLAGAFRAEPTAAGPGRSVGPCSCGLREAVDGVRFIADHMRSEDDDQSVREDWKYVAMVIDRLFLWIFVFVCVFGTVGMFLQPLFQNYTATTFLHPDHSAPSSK
EXPERIMENTAL ENDPOINT: Ki

As a guide, the following entries are already answered.
COMPOUND | Ki
CC(C)(C)C1CCC(CN2C(=N)N(CCCC[C@H]3CN=C(N)N3CCc3cccc(F)c3)C[C@H]2CC2CCCCC2)CC1 (stereo partly drawn) | 3.73 µM
N=C1N(CCCC[C@H]2CN=C(N)N2CCc2cccc(F)c2)C[C@@H](CC2CCCCC2)N1CCc1cccc(Br)c1 | 3.5 µM
CCCCCCCN1C(N)=NC[C@@H]1CCCCN1C[C@@H](CC2CCCCC2)N(CCc2cccc(Br)c2)C1=N | 2.8 µM
CC(C)(C)C1CCC(CN2CCN(CCCC[C@H]3CN=C(N)N3CCc3cccnc3)C2=N)CC1 (stereo partly drawn) | 0.433 µM
CC(C)(C)C1CCC(CN2CCN(CCCC[C@@H]3CNC(=N)N3CCc3cccnc3)C2=N)CC1 (stereo partly drawn) | 2.22 µM

Incoming: I'd like to know its Ki. The compound in question is CC(C)(C)C1CCC(CN2C(=N)N(CCCC[C@H]3CN=C(N)N3CCc3cccnc3)C[C@@H]2CC2CCCCC2)CC1 (stereo partly drawn)
Outgoing: 0.611 µM

Incoming: // same read-out, input: CC(C)CCCN1C(N)=NC[C@@H]1CCCCN1C[C@@H](Cc2ccccc2)N(CC2CCC(C(C)(C)C)CC2)C1=N (stereo partly drawn)
Outgoing: 2.3 µM

Incoming: Another compound to look at: `N=C1N(CCCC[C@H]2CN=C(N)N2CCc2ccc(Cl)c(Cl)c2)C[C@@H](Cc2ccc3ccccc3c2)N1CCc1cccc(Br)c1`
Outgoing: 1.9 µM
